List of pIC50 tested on HIV-1 RT wild-type (WT) (Human immunodeficiency virus type 1 group M subtype B).
pIC50: −log10 of the molar value.

Solved cases (3 shown):
CCN1c2ncc(CCOc3ccc(C(=O)O)c(N)c3)cc2C(=O)N(C)c2cccnc21 = > 7.30
CCN1c2ncc(CCOc3ccc(C(=O)OC)c(F)c3)cc2C(=O)N(C)c2cccnc21 = > 7.30
CCN1c2ncc(CCOc3ccc(CC(=O)O)cc3Br)cc2C(=O)N(C)c2cccnc21 = > 7.30

We next turn to a different molecule, shown below.
Which pIC50 is listed for CCc1cc(C(=O)OC)ccc1OCCc1cnc2c(c1)C(=O)N(C)c1cccnc1N2CC ?
> 7.30

---

Below is a list of entries, each paired with its recorded pIC50 value.
target: HIV-1 RT wild-type (WT) (Human immunodeficiency virus type 1 group M subtype B); test: biochemical
pIC50: −log10 of the molar value.

CCN1c2ncc(CCOc3ccc(C(=O)O)cc3C)cc2C(=O)N(C)c2ccc(F)nc21 [Entry 1020] = > 7.30

Which pIC50 is listed for CCN1c2ncc(CCOc3ccc(C(=O)O)cc3C)cc2C(=O)N(C)c2ccc(OC)nc21 [Entry 1019] ?
> 7.30

Which pIC50 is listed for CCN1c2ncc(CCOc3ccc(C(=O)O)cc3Cl)cc2C(=O)N(C)c2cccnc21 [Entry 1023] ?
7.00 to 7.30

Which pIC50 is listed for CCOc1ccc2c(n1)N(CC)c1ncc(CCOc3ccc(C(=O)O)cc3C)cc1C(=O)N2C [Entry 1021] ?
> 7.30

Which pIC50 is listed for CCN1c2ncc(CCOc3ccc(C(=O)O)cc3C(F)(F)F)cc2C(=O)N(C)c2cccnc21 [Entry 1027] ?
7.00 to 7.30

Which pIC50 is listed for CCc1cc(C(=O)O)ccc1OCCc1cnc2c(c1)C(=O)N(C)c1cccnc1N2CC [Entry 1003] ?
> 7.30

Which pIC50 is listed for CCN1c2ncc(CCOc3ccc(C(=O)O)cc3C)cc2C(=O)N(C)c2ccc(Cl)nc21 [Entry 1015] ?
> 7.30

Which pIC50 is listed for CCN1c2ncc(CCOc3ccc(CCC(=O)O)cc3C)cc2C(=O)N(C)c2ccc(Cl)nc21 [Entry 1007] ?
> 7.30

Which pIC50 is listed for CCN1c2ncccc2NC(=O)c2cc(CCOc3ccc(C(=O)O)cc3C)cnc21 [Entry 1029] ?
> 7.30

Which pIC50 is listed for CCN1c2ncc(CCOc3ccc(C(C)C(=O)O)cc3C)cc2C(=O)N(C)c2cccnc21 (stereo not shown) [Entry 1006] ?
> 7.30

Which pIC50 is listed for CCN1c2ncc(CCOc3ccc(C(=O)OC)cc3Cl)cc2C(=O)N(C)c2cccnc21 [Entry 1032] ?
> 7.30

Which pIC50 is listed for CCN1c2ncc(CCOc3ccc(C(=O)O)c(F)c3)cc2C(=O)N(C)c2cccnc21 [Entry 1025] ?
7.00 to 7.30

Which pIC50 is listed for CCN1c2ncc(CCOc3ccc(C(=O)O)cc3C)cc2C(=O)Nc2c(C)cc(Cl)nc21 [Entry 1016] ?
> 7.30

Which pIC50 is listed for CCN1c2ncc(CCOc3ccc(C(=O)O)cc3C)cc2C(=O)N(C)c2ccc(C)nc21 [Entry 1017] ?
> 7.30

Which pIC50 is listed for CCN1c2ncc(CCOc3ccc(C=CC(=O)O)cc3C)cc2C(=O)N(C)c2cccnc21 [Entry 1010] ?
> 7.30

Which pIC50 is listed for CCN1c2ncc(CCOc3ccc(C(=O)O)c(C)c3C)cc2C(=O)N(C)c2cccnc21 [Entry 1001] ?
> 7.30

The values you see were collected from patent US6706706B2.
